tested on: RPMI-7951 (Melanoma); assay: Bliss excess, mean over the matrix (fraction); higher = more synergy;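 also: after 72 h of two-drug dosing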
Label Yes when Bliss excess >= -0.007; otherwise No.

Please indicate if the recorded Bliss excess for Cc1cc2ncnn2cc1Nc1ncc2c(n1)n(C1CCOCC1)c(=O)n2C [AZD7648] + C[C@@H]1COCCN1C2=NC(=NC(=C2)C3(CC3)[S@](=N)(=O)C)C4=C5C=CNC5=NC=C4 [AZD6738] (first compound max 10 µM, 7x7, partner max 10 µM) meets or exceeds -0.007. Yes

Please indicate if the recorded Bliss excess for COc1nnc2ccc(N3CCC(c4ccc(OCCN5CCN(C)C(=O)[C@H]5C)cc4)CC3)nn12 [AZD5153] + C[C@@H]1COCCN1C2=NC(=NC(=C2)C3(CC3)[S@](=N)(=O)C)C4=C5C=CNC5=NC=C4 [AZD6738] (first compound max 1 µM, 7x7, partner max 10 µM) meets or exceeds -0.007. Yes

Please indicate if the recorded Bliss excess for COc1nnc2ccc(N3CCC(c4ccc(OCCN5CCN(C)C(=O)[C@H]5C)cc4)CC3)nn12 [AZD5153] + CCN(CCO)CCCOc1ccc2c(Nc3cc(CC(=O)Nc4cccc(F)c4)[nH]n3)ncnc2c1 [AZD2811] (first compound max 1 µM, 7x7, partner max 1 µM) meets or exceeds -0.007. No

Please indicate if the recorded Bliss excess for COc1cccc(OCCCN)c1-c1cc(Nc2cnc(C#N)cn2)n[nH]1 [Prexasertib] + C=CCn1c(=O)c2cnc(Nc3ccc(N4CCN(C)CC4)cc3)nc2n1-c1cccc(C(C)(C)O)n1 [AZD1775] (first compound max 1 µM, partner max 1 µM) meets or exceeds -0.007. Yes

Please indicate if the recorded Bliss excess for Cc1cc2ncnn2cc1Nc1ncc2c(n1)n(C1CCOCC1)c(=O)n2C [AZD7648] + O=C(c1cc(Cc2n[nH]c(=O)c3ccccc23)ccc1F)N1CCN(C(=O)C2CC2)CC1 [Olaparib] (first compound max 10 µM, 7x7, partner max 10 µM) meets or exceeds -0.007. Yes

Please indicate if the recorded Bliss excess for CN(CCO)CC[C@H](CSc1ccccc1)Nc1ccc(S(=O)(=O)NC(=O)c2ccc(N3CCC([C@@H](O)c4ccccc4-c4ccc(Cl)cc4)CC3)cc2)cc1S(=O)(=O)C(F)(F)F [AZD4320] + C[C@@H]1COCCN1C2=NC(=NC(=C2)C3(CC3)[S@](=N)(=O)C)C4=C5C=CNC5=NC=C4 [AZD6738] (first compound max 1 µM, 7x7, partner max 10 µM) meets or exceeds -0.007. No
